test system: HAP1 MTAP-deleted cell line; experiment: Viability assay, MTAP-deleted cell line; type: cell-based; conditions: Homo sapiens, HAP1, read-out: HAP1 MTAP deleted viability
Below, each entry is listed with its recorded IC50.
Measurement Name: IC50

Cc1cc(NC(=O)C(=O)N2CC(C)CCC2c2ccccc2)cnc1N (mixture of isomers)	1 to 10 µM
Cc1cc(NC(=O)C(=O)N2C[C@H](C)CC[C@H]2c2ccc3c(c2)CC(=O)N3)cnc1N (single isomer, unassigned)	> 10 µM
Cc1cc(NC(=O)C(=O)N2C[C@H](C)CC[C@H]2c2ccc(O)cc2)cnc1N (single isomer, unassigned)	< 1 µM
Cc1cncc(NC(=O)C(=O)N2[C@H](c3ccccc3)CC[C@@H](C)[C@@H]2C)c1 (racemic)	> 10 µM

----------
target: PRMT5 (Homo sapiens, UniProt O14744); construct: purchased Viva (custom protein); test: PRMT5 biochemical IC50 assay with no cofactor; conditions: PRMT5, no cofactor; read-out: No Cofactor/ rel IC50
Sequence (O14744 whole entry): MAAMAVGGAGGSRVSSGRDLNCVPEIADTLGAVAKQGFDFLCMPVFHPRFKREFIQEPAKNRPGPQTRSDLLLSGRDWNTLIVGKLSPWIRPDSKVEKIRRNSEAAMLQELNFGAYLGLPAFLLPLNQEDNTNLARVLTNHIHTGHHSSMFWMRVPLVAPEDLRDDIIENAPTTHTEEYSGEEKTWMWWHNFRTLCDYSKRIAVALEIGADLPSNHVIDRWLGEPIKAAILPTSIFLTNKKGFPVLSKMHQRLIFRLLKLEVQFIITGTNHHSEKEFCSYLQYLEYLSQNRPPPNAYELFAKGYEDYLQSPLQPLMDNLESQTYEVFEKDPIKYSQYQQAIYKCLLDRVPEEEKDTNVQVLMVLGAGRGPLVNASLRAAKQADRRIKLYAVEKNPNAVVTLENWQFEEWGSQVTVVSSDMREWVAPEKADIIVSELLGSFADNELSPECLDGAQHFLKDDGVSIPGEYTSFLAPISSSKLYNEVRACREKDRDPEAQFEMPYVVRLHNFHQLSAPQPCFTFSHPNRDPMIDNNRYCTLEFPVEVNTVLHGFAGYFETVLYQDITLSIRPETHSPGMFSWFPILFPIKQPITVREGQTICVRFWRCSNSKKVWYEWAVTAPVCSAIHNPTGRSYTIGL
Sequence (Q9BQA1 whole entry partner): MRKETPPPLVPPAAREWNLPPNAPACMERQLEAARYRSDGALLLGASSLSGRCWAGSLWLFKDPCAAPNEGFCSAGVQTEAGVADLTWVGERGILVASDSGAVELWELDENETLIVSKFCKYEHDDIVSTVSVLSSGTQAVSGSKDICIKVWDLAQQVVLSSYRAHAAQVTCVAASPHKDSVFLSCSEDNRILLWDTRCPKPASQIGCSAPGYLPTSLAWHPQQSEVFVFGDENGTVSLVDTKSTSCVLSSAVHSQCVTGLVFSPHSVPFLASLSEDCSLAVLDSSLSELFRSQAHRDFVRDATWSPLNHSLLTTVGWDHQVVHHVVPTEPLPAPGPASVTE
pIC50: −log10 of the molar value.
Below, each entry is listed with its recorded pIC50.
Measurement Name: pIC50

CCc1cc(NC(=O)C(=O)N2C[C@@H](C)CC[C@@H]2c2ccc(N3CCN(CC)CC3)c(C)c2)cnc1N (racemic)	> 7.30
C[C@H]1CC[C@H](C2CCCCC2)N(C(=O)C(=O)Nc2cncc(C(N)=O)c2)C1 (single isomer, unassigned)	< 6.30
Cc1ncc(NC(=O)C(=O)N2C[C@@H](C)CC[C@@H]2c2ccc3sc(C4CCN(C)CC4)nc3c2)cc1C(F)F	> 7.30

----------
system: HAP1 MTAP-deleted cell line; assay: Viability assay, MTAP-deleted cell line; format: cell-based; conditions: Homo sapiens, HAP1, viability assay, MTAP-deleted cell line; read-out: HAP1 MTAP deleted viability
pIC50: −log10 of the molar value.
Measurement Name: pIC50

Cc1ncc(NC(=O)C(=O)N2C[C@@H](C)CC[C@@H]2c2ccc3sc(C4CCN(C)CC4)nc3c2)cc1Cl [Compound 1102]	> 6.00
CCc1cc(NC(=O)C(=O)N2C[C@@H](C)CC[C@@H]2c2ccn(-c3cc[nH]n3)n2)cnc1N (single isomer, unassigned) [Compound 913]	< 5.00
C[C@H]1CC[C@H](c2ccc3cncn3c2)N(C(=O)C(=O)Nc2cnc(N)c(C3CC3)c2)C1 (single isomer, unassigned) [Compound 1205]	> 6.00
Cc1cc(NC(=O)C(=O)N2C[C@@H](C)CC[C@@H]2c2ccc(-c3cncs3)cc2)cnc1N (single isomer, unassigned) [Compound 887]	> 6.00
CCc1cc(NC(=O)C(=O)N2C[C@@H](C)CC[C@@H]2c2ccc3sc(CCN4CCCC4)nc3c2)cnc1N [Compound 1095]	> 6.00
C[C@H]1CC[C@H]2CCCC[C@H]2N1C(=O)C(=O)Nc1cncc(C(N)=O)c1 (single isomer, unassigned) [Compound 245]	5.00 to 6.00
C[C@@H]1CC[C@@H](c2ccc(N)nc2)N(C(=O)C(=O)Nc2cncc(C(N)=O)c2)C1 (single isomer, unassigned) [Compound 492]	5.00 to 6.00
CCc1cc(NC(=O)C(=O)N2C[C@@H](C)CC[C@@H]2c2ccc3sc([C@@H]4C[C@H]5CN(C)C[C@H]54)nc3c2)cnc1N [Compound 1147]	> 6.00
Cc1cc(NC(=O)C(=O)N2CCCC[C@@H]2c2ccccc2)cnc1N (single isomer, unassigned) [Compound 51]	< 5.00
CN(C)c1cccc([C@@H]2CCCCN2C(=O)C(=O)Nc2cncc(C(N)=O)c2)c1 (single isomer, unassigned) [Compound 365]	5.00 to 6.00
Cc1cc(NC(=O)C(=O)N2C[C@H](C)CC[C@H]2c2ccc(NS(C)(=O)=O)cc2)cnc1N (single isomer, unassigned) [Compound 499]	> 6.00
Cc1cc(NC(=O)C(=O)N2C[C@H](C)CC[C@H]2c2cccnc2)cnc1N (single isomer, unassigned) [Compound 301]	5.00 to 6.00
Cc1cnc(N)c(NC(=O)C(=O)N2CCCCC2c2ccccc2)c1 (centres unmarked) [Compound 160]	< 5.00
CC[C@@H]1CC[C@@H](c2cn[nH]c2)N(C(=O)C(=O)Nc2cnc(N)c(C)c2)C1 (racemic) [Compound 1032]	5.00 to 6.00
COc1ncc(NC(=O)C(=O)N2C[C@@H](C)CC[C@@H]2C2CCCC2)cc1C(N)=O (single isomer, unassigned) [Compound 298]	< 5.00
CCc1cc(NC(=O)C(=O)N2CC(C)CCC2c2ccc3sc(C4CCN(C)CC4C)nc3c2)cnc1N (racemic) [Compound 1227]	> 6.00
Cc1cc(C)n(-c2ccc([C@@H]3CC[C@@H](C)CN3C(=O)C(=O)Nc3cncc(C(N)=O)c3)cc2)n1 (racemic) [Compound 157]	< 5.00
Cc1cc(NC(=O)C(=O)N2C[C@@H](C)CC[C@@H]2[C@H]2CC[C@@H](O)CC2)cnc1N (single isomer, unassigned) [Compound 423]	< 5.00
Cc1cc(NC(=O)C(=O)N2CCCCC2c2cccc3[nH]cnc23)cnc1N (centres unmarked) [Compound 142]	< 5.00
COc1ncc(NC(=O)C(=O)N2C[C@H](C)CC[C@H]2c2ccc3[nH]ncc3c2)cc1C(N)=O (single isomer, unassigned) [Compound 465]	< 5.00
C[C@@H]1CC[C@H](c2ccc(N[C@@H]3CCN(C)C3=O)cc2)N(C(=O)C(=O)Nc2cncc(C(N)=O)c2)C1 (racemic) [Compound 427]	< 5.00
CCc1cc(NC(=O)C(=O)N2C[C@@H](C)CC[C@@H]2c2ccc3sc(C4(CN(C)C)COC4)nc3c2)cnc1N [Compound 1165]	> 6.00
CC1(C)CCC[C@@H]2CN(C(=O)C(=O)Nc3cncc(C(N)=O)c3)CC[C@H]21 (single isomer, unassigned) [Compound 193]	5.00 to 6.00
NC(=O)c1cncc(NC(=O)C(=O)N2CCC3C(CCCN3Cc3ccccc3)C2)c1 (centres unmarked) [Compound 412]	< 5.00
C[C@H]1CC[C@@H](C2CCCCC2)N(C(=O)C(=O)Nc2cncc(C(N)=O)c2)C1 (single isomer, unassigned) [Compound 121]	5.00 to 6.00
C[C@@H]1CC[C@@H](c2ccc3c(c2)OCC3)N(C(=O)C(=O)Nc2cncc(C(N)=O)c2)C1 (racemic) [Compound 405]	5.00 to 6.00

From: patent US11999727B2
